Entries and their pIC50
target-of-assay: Adenosine receptor A2b (Homo sapiens, UniProt P29275)
Sequence (P29275 whole entry): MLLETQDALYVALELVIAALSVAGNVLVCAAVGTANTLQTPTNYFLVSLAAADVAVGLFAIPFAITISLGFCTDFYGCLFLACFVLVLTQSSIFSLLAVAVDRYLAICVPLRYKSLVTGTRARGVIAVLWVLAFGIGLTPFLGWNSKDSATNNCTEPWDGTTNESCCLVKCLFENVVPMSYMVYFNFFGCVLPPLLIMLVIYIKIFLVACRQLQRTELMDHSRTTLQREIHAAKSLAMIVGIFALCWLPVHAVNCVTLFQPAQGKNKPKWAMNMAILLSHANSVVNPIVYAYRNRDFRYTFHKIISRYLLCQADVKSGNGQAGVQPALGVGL
experiment-notes: Binding affinity to recombinant human adenosine A2B receptor expressed in HEK293 cell membrane incubated for 15 to 30 mins by Topcount scintillation counter assay
Quick note: pIC50 values are minus log10 of concentrations in mol/L.

Answered cases to consult:
[[record]]
compound = "COc1cccc2c1nc(N)n1nc([C@H]3C[C@H](c4ncc(C(C)(C)N)cc4Cl)C3)nc21"
recorded_endpoint = "pIC50"
endpoint_value = 8.57

[[record]]
compound = "COc1cccc2c1nc(N)n1nc(C3CC3c3ccc4c(c3)CCNC4)nc21 (centres undefined)"
recorded_endpoint = "pIC50"
endpoint_value = 8.51

[[record]]
compound = "COc1cccc2c1nc(N)n1nc([C@H]3C[C@H](c4ncc(C(C)(C)N)cc4C)C3)nc21"
recorded_endpoint = "pIC50"
endpoint_value = 8.80


Next, consider the following compound.
Task: Need pIC50 of COc1cccc2c1nc(N)n1nc([C@H]3C[C@H](c4ccc(C(C)(C)O)cn4)C3)nc21 , thanks.
Output: 8.48

* * *

Entries and their IC50
target-of-assay: Adenosine receptor A2a (Homo sapiens)
Sequence (P29274 whole entry): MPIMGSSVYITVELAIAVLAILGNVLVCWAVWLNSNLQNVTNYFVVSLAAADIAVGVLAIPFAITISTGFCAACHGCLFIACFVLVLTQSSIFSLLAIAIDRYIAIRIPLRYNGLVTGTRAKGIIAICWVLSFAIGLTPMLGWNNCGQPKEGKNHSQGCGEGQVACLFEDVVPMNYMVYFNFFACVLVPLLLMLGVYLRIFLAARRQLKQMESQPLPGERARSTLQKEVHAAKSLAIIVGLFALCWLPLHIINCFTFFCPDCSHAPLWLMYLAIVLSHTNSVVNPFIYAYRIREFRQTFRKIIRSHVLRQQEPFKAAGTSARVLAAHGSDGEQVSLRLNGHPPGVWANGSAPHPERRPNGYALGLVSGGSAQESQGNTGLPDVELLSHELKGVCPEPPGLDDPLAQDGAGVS
experiment-notes: Displacement of [3H]-SCH58261 from recombinant human adenosine A2A receptor expressed in HEK293 cell membrane incubated for 15 to 30 mins by Topcount scintillation counter assay
I only need the number, in nM, no unit after it.

[[record]]
compound = "COc1cccc2c1nc(N)n1nc([C@H]3C[C@H](c4ncc(C(C)(C)N)cc4Cl)C3)nc21"
recorded_endpoint = "IC50"
endpoint_value = 0.8


Next, consider the following compound.
Task: Need IC50 of COc1cccc2c1nc(N)n1nc(C3CC3c3ccc4c(c3)CCNC4)nc21 (configuration not stated) , thanks.
Output: 1.1
